// reported cell viability for each item listed
- Test system: P12-Ichikawa
- measurement-description: cell viability relative to DMSO control; higher = less cytotoxic
- experimental-parameters: RPMI 5 mM glucose + 10% dialyzed FBS; 48 h; 0.0211 µM

molecule	cell viability
COc1ccc(C(=O)CC(=O)c2ccc(C(C)(C)C)cc2)cc1	112%
CN[C@H]1[C@H](O[C@@H]2[C@H](O[C@@H]3[C@@H](O)[C@@H](O)[C@@H](NC(=N)N)[C@@H](O)[C@H]3NC(=N)N)O[C@H](C)[C@@]2(O)C=O)O[C@@H](CO)[C@@H](O)[C@H]1O	123%
O=[S+]([O-])(CCSSCC[S+](=O)([O-])[O][Na])[O][Na]	127%
CC(=O)Oc1cc2c(s1)CCN(C(C(=O)C1CC1)c1ccccc1F)C2.Cl (configuration not stated)	104%
O=C(O)[C@@H](c1ccc(OCc2ccc3ccccc3n2)cc1)C1CCCC1	113%
OC(CCN1CCCCC1)(C2CC\3CC2\C=C3)C4=CC=CC=C4 (configuration not stated)	91.4%
OC1=CC2=C(C(=O)\C=C(/O2)C3=CC=CC=C3)C(=C1O)O	112%
C[N]1N=CC2=C1C=C(C(=C2)OC3=CC=C(NC(=O)\C4=C\C=C(\C)N(C4=O)C5=CC=C(F)C=C5)C=C3F)C6=C[NH]N=C6	125%
C[C@]12CC[C@@H]3c4ccc(O)cc4CC[C@H]3[C@@H]1CC[C@@H]2O	101%
CN1CCN(Cc2ccc(NC(=O)Nc3ccc(Oc4cc(NC(=O)C5CC5)ncn4)cc3)cc2C(F)(F)F)CC1	121%
CN1/C=C(\N=C(NC2=CC=C(C=C2)C(=O)N3CCOCC3)/C1=O)/C4=C(C)C(=CC=C4)NC(=O)C5=CC=C(C=C5)C(C)(C)C	101%
COc1cccc2c(NCc3ccccc3)nc(-n3c(N)nc4ccccc43)nc12	99.6%
CCNC(=O)Nc1ccc(-c2nc3c(c(N4CCOC[C@@H]4C)n2)CCN(C2COC2)C3)cc1	106%
COc1ccc(CC2c3cc(OC)c(OC)cc3CC[N+]2(C)CCC(=O)OCCCCCOC(=O)CC[N+]2(C)CCc3cc(OC)c(OC)cc3C2Cc2ccc(OC)c(OC)c2)cc1OC (configuration not stated)	91.4%
C[N+](C)(C)CC(=O)O.[Cl-]	86%
Cn1cnc(-c2cc3nccc(Oc4ccc(NC(=S)NC(=O)Cc5ccccc5)cc4F)c3s2)c1	91.8%
CNC(=O)c1ccc(N2C(=S)N(c3ccc(C#N)c(C(F)(F)F)c3)C(=O)C2(C)C)cc1F	108%

Values from the supplement of paper PMC11451515
